Data provenance is ChEMBL document CHEMBL4219173.

Consider the following compounds; for each one, report its chromatographic logD.
- Assay procedure: Lipophilicity, log D of the compound by chromatographic method
- Format: physicochemical

Request: Bench note: what chromatographic logD did NC(=O)c1cccc2c1NC(N1Cc3c(N)n[nH]c3C13CC3)=NC2NCc1c(F)cccc1C(F)(F)F (configuration not stated) show?
Response: 3.9

Request: Sample "Cc1cc(NCc2c(F)cccc2C(F)(F)F)c2cccc(C(N)=O)c2n1" — what was its chromatographic logD?
Response: 5.1

====

- Target entity: Cytochrome P450 3A4 (Homo sapiens, UniProt P08684)
- Sequence (P08684 whole entry): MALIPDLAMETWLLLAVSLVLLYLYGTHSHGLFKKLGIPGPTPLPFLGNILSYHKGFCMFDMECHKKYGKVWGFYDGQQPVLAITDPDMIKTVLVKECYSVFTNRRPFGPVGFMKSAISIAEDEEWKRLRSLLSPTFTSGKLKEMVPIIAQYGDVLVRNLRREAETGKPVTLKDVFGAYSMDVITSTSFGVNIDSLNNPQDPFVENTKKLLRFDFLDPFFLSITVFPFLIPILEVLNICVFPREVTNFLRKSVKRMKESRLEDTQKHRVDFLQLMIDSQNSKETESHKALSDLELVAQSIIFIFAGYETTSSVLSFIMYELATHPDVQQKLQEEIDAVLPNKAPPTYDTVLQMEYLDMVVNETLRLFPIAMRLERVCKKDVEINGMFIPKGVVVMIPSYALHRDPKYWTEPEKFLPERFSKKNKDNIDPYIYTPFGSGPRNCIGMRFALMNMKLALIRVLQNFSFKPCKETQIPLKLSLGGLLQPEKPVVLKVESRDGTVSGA
Assay metric: IC50 (nM)
All answers are understood in nM, so give the number only.

Request: IC50 for C[C@@H]1c2n[nH]cc2CN1C1=NC(NCc2c(F)cccc2C(F)(F)F)c2cccc(C(N)=O)c2N1 (stereo partly specified) ?
Response: 158

====

Hi there, I'd appreciate the recorded solubility for every entry that follows.
- Assay procedure: Aqueous solubility of the compound in FaSSIF
- Assay type: physicochemical
Your answer should be a plain number; it is taken to be in µg/mL.

Request: Looking for the measured solubility of "NC(=O)c1cccc2c(NCc3c(F)cccc3C(F)(F)F)nc(N3Cc4cn[nH]c4C3)nc12" , can you help?
Response: 6

Request: For C[C@@H]1c2n[nH]cc2CN1C1=NC(NCc2c(F)cccc2C(F)(F)F)c2cccc(C(N)=O)c2N1 (stereo not given in full) , what is its reported solubility?
Response: 34

Request: Return reported solubility; argument: C[C@H](O)c1n[nH]c2c1CN(C1=NC(NCc3c(F)cccc3C(F)(F)F)c3cccc(C(N)=O)c3N1)C2 (stereo not given in full)
Response: 12

Request: Would you mind telling me what solubility value was observed for Cn1ncc2c1CN(C1=NC(NCc3c(F)cccc3C(F)(F)F)c3cccc(C(N)=O)c3N1)C2 (stereo not given) ?
Response: 2

Request: Query: solubility; subject: C[C@@H](O)c1n[nH]c2c1CN(C1=NC(NCc3c(F)cccc3C(F)(F)F)c3cccc(C(N)=O)c3N1)C2 (stereo not given in full)
Response: 11

====

Hi! I'm sharing some IC50 results obtained with Voltage-gated inwardly rectifying potassium channel KCNH2 (Homo sapiens).
Sequence (Q12809 whole entry): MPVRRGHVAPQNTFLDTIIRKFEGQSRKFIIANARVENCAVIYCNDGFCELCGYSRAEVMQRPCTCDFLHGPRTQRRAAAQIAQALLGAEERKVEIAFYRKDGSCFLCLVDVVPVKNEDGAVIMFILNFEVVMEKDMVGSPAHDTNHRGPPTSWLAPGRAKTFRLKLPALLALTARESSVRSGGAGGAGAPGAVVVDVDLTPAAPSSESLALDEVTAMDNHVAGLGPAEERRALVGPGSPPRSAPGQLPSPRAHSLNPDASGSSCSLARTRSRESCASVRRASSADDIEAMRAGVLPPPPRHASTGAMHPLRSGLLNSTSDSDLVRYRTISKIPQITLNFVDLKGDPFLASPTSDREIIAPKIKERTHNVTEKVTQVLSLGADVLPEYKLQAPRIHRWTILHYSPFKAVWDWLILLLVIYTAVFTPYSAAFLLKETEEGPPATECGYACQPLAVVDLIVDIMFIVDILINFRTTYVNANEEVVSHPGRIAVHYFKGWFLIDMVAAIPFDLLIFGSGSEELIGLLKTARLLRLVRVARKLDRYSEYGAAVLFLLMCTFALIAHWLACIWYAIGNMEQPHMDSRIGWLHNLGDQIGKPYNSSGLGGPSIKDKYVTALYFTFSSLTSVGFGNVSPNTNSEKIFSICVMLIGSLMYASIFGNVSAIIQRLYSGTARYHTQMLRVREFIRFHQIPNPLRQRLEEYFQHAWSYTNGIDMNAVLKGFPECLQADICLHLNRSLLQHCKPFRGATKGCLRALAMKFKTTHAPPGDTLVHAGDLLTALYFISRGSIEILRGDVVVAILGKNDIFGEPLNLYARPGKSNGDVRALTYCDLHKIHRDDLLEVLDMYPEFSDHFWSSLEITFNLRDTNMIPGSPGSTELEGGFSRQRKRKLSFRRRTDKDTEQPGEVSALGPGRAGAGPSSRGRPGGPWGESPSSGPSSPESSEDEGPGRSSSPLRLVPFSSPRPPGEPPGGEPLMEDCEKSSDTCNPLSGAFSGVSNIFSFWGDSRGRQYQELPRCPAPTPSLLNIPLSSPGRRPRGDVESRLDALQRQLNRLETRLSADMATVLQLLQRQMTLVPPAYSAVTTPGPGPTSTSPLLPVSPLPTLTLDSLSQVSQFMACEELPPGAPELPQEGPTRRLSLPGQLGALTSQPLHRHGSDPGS
Give a bare numeral; the unit µM is implied.

Request: So what IC50 did Cc1n[nH]c2c1CN(C1=NC(NCc3c(F)cccc3C(F)(F)F)c3cccc(C(N)=O)c3N1)C2 (configuration not stated) get with Voltage-gated inwardly rectifying potassium channel KCNH2 (Homo sapiens)?
Response: 12.6

Request: // fetch Voltage-gated inwardly rectifying potassium channel KCNH2 (Homo sapiens) IC50 for C[C@@H]1c2n[nH]cc2CN1C1=NC(NCc2c(F)cccc2C(F)(F)F)c2cccc(C(N)=O)c2N1 (some centres not stated)
Response: 3.16

====

- Target entity: ADP-ribosyl cyclase/cyclic ADP-ribose hydrolase 1 (Homo sapiens)
- Assay procedure: Inhibition of recombinant human CD38 extracellular domain expressed in Pichia pastoris using NAD as substrate pretreated for 30 mins followed by substrate addition measured after 15 to 45 mins
In plain terms, low IC50, meaning strictly below 300 nM, gives criterion met, and everything else gives criterion not met.

Request: Bench note: check whether "NC(=O)c1cccc2c(NCc3c(F)cccc3C(F)(F)F)nc(NCc3nc[nH]n3)nc12" shows IC50 below 300 nM
Response: criterion not met

Request: A record lists CC(=O)c1n[nH]c2c1CN(C1=NC(NCc3c(F)cccc3C(F)(F)F)c3cccc(C(N)=O)c3N1)C2 (stereo not drawn) . Is its IC50 below 300 nM?
Response: criterion met

Request: Below 300 nM on IC50? Entry "NC(=O)c1cccc2c(NCc3c(F)cccc3C(F)(F)F)nc(NCc3ccon3)nc12"
Response: criterion not met

Request: Does the reported IC50 of "NC(=O)c1cccc2c(NCc3c(F)cccc3C(F)(F)F)nc(N3Cc4cn[nH]c4C3)nc12" stay below 300 nM?
Response: criterion met

Request: Lab note: confirm whether the reported IC50 for this molecule is below 300 nM, equality not counting. molecule: Cc1n[nH]c2c1CN(C1=NC(NCc3c(F)cccc3C(F)(F)F)c3cccc(C(N)=O)c3N1)[C@@H]2C (stereo partly drawn)
Response: criterion met

Request: Lab note: IC50 threshold 300 nM. Does this molecule come in strictly under it? C[C@@H]1c2[nH]nc(N)c2CN1C1=NC(NCc2c(F)cccc2C(F)(F)F)c2cccc(C(N)=O)c2N1 (stereo partly drawn)
Response: criterion met

Request: Report whether reported IC50 is lower than 300 nM (strictly) for CCc1n[nH]c2c1CN(C1=NC(NCc3c(F)cccc3C(F)(F)F)c3cccc(C(N)=O)c3N1)C2 (stereo not drawn)
Response: criterion met

Request: Is it true that IC50 reported for "NC(=O)c1cccc2c(NCc3c(F)cccc3C(F)(F)F)nc(NCc3cnco3)nc12" is less than 300 nM?
Response: criterion not met

Request: Dear reviewer, please state whether Cn1cc2c(n1)CN(C1Nc3c(C(N)=O)cccc3C(NCc3c(F)cccc3C(F)(F)F)N1)C2 (stereo not drawn) has IC50 strictly beneath 300 nM.
Response: criterion met

Request: Below 300 nM on IC50? Entry C[C@@H](O)c1n[nH]c2c1CN(C1=NC(NCc3c(F)cccc3C(F)(F)F)c3cccc(C(N)=O)c3N1)C2 (stereo partly drawn)
Response: criterion met

Request: Does this molecule meet the criterion IC50 < 300 nM? NC(=O)c1cccc2c1NC(N1Cc3c(N)n[nH]c3C13CCCC3)=NC2NCc1c(F)cccc1C(F)(F)F (stereo not drawn)
Response: criterion met

Request: Check if IC50 falls below 300 nM for "Cc1n[nH]cc1CNc1nc(NCc2c(F)cccc2C(F)(F)F)c2cccc(C(N)=O)c2n1" .
Response: criterion not met

Request: IC50 strictly < 300 nM for this molecule? "NC(=O)c1cccc2c(NCc3c(F)cccc3C(F)(F)F)nc(NCc3ncc[nH]3)nc12"
Response: criterion not met

Request: API: query returns whether the molecule falls strictly under 300 nM in IC50. Query: C[C@H]1c2[nH]nc(N)c2CN1C1=NC(NCc2c(F)cccc2C(F)(F)F)c2cccc(C(N)=O)c2N1 (stereo partly drawn)
Response: criterion not met

Request: Is 300 nM strictly greater than the molecule's reported IC50? molecule: "NC(=O)c1cccc2c(NCc3c(F)cccc3C(F)(F)F)nc(NCc3ccn[nH]3)nc12"
Response: criterion not met

Request: Here's an entry: "NC(=O)c1cccc2c(NCc3c(F)cccc3C(F)(F)F)nc(NCc3nnn[nH]3)nc12" . Is its IC50 below 300 nM?
Response: criterion not met

Request: IC50 under 300 nM? Item: C[C@@H]1c2n[nH]cc2CN1C1=NC(NCc2c(F)cccc2C(F)(F)F)c2cccc(C(N)=O)c2N1 (stereo partly drawn)
Response: criterion met

Request: Strictly below 300 nM: is that where IC50 of NC(=O)c1cccc2c1NC(N1CCCc3cn[nH]c3C1)=NC2NCc1c(F)cccc1C(F)(F)F (stereo not drawn) sits?
Response: criterion not met

====

- Target entity: ADP-ribosyl cyclase/cyclic ADP-ribose hydrolase 1 (Homo sapiens, UniProt P28907)
- Sequence (P28907 whole entry, the tested form may be a part): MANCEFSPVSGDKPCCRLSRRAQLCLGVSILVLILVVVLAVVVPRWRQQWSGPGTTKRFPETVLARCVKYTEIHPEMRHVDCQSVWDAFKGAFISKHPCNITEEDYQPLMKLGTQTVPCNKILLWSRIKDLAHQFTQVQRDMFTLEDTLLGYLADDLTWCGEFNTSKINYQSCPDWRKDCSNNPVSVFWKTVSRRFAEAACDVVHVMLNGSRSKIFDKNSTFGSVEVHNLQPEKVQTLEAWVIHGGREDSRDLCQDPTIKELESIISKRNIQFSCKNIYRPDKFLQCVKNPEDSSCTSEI
- Assay procedure: Inhibition of recombinant human CD38 extracellular domain expressed in Pichia pastoris using NAD as substrate pretreated for 30 mins followed by substrate addition measured after 15 to 45 mins
Task for the reader: assign each of the following compounds its reported log10 IC50.
// stored as log10 of IC50 expressed in µM

Request: Reported log10 IC50 for Cn1ncc2c1CN(C1=NC(NCc3c(F)cccc3C(F)(F)F)c3cccc(C(N)=O)c3N1)C2 (stereo not given) : what is it?
Response: -1.09

Request: Entry "NC(=O)c1cccc2c(NCc3c(F)cccc3C(F)(F)F)nc(NCc3cn[nH]c3)nc12" has what log10 IC50?
Response: -0.35

Request: I would be grateful if you could share the reported log10 IC50 for Cc1n[nH]c2c1CN(C1=NC(NCc3c(F)cccc3C(F)(F)F)c3cccc(C(N)=O)c3N1)[C@H]2C (stereo not given in full) .
Response: -0.77

Request: Reported log10 IC50, compound "NC(=O)c1c(C(F)(F)F)ccc2c(NCc3c(F)cccc3C(F)(F)F)nc(NCc3ncco3)nc12" : ____
Response: 0.62

Request: Name the recorded log10 IC50 for "NC(=O)c1cccc2c(NCc3c(F)cccc3C(F)(F)F)cc(NCc3cn[nH]c3)nc12" .
Response: -1.14

====

- Assay procedure: Clearance in mouse at 2 mg/kg, iv
- Format: ADME, organism-based
- Study conditions: in vivo
Assay metric: clearance (mL/min/kg)
Use mL/min/kg as the unit, but write only the number.

Request: Any idea what clearance was measured for C[C@@H]1c2n[nH]cc2CN1C1=NC(NCc2c(F)cccc2C(F)(F)F)c2cccc(C(N)=O)c2N1 (stereo partly specified) ?
Response: 37

====

- Assay procedure: Permeability of the compound by PAMPA
- Assay type: ADME
- Study conditions: read-out: permeability
Assay metric: Papp (×10⁻⁶ cm/s)
Numbers only; they are read as ×10⁻⁶ cm/s.

Request: Record request: Papp value, item C[C@@H]1c2n[nH]cc2CN1C1=NC(NCc2c(F)cccc2C(F)(F)F)c2cccc(C(N)=O)c2N1 (stereo partly specified)
Response: 14.7
